# test.summary: Human HepG2 cell viability assay in 384 well format
# Assay type: toxicity, cell-based
# Set-up: dose 125 nL, time 70.5 hour; concentration not given beside the values
# reported.conditions: HepG2 cells, read-out: Inhibition
reported.property: cytotoxicity at 70.5 h (%)
The answer is to be given in %; state only the numeric part.

Please give the measured cytotoxicity at 70.5 h for this molecule: `O=C(c1cccnc1)N1CCSCC1`
-16.5

Please give the measured cytotoxicity at 70.5 h for this molecule: `O=C(c1ccco1)N1CCc2ncnc(Oc3cccnc3)c2CC1`
-0.464

Please give the measured cytotoxicity at 70.5 h for this molecule: COC(C(=O)NC1CC1)c1ccccc1 (centres undefined)
28.7

Please give the measured cytotoxicity at 70.5 h for this molecule: `COc1ccccc1OCC(=O)NS(=O)(=O)c1ccccc1Br`
0.476

Please give the measured cytotoxicity at 70.5 h for this molecule: `Cc1nc(C)c(CC(=O)N2C[C@H]3CC[C@@H]2CN(C(=O)N(C)C)C3)c(=O)[nH]1`
15.9

Please give the measured cytotoxicity at 70.5 h for this molecule: CC(=O)NCC(Cc1cccc(F)c1)n1cccc1 (centres undefined)
-5.86

Please give the measured cytotoxicity at 70.5 h for this molecule: CC(O)CNC(=O)Nc1ccc(Br)cc1Br (centres undefined)
-3.83

Please give the measured cytotoxicity at 70.5 h for this molecule: `CCOC(=O)C1(Cc2cccc(OC)c2)CCN(Cc2ccon2)CC1`
-11.6

Please give the measured cytotoxicity at 70.5 h for this molecule: OCC1CCCN1c1cc(NCCNc2ccccn2)ncn1 (centres undefined)
0.758

Please give the measured cytotoxicity at 70.5 h for this molecule: `Cc1ccc(CNCc2cccc(NC(=O)CCN3CCOCC3)c2)s1`
-5.6

Please give the measured cytotoxicity at 70.5 h for this molecule: `Cc1ccnc(N2CCN(C[C@]3(O)CCCN4CCCC[C@@H]43)CC2)c1`
1.52

Please give the measured cytotoxicity at 70.5 h for this molecule: `CCn1ccnc1CN1CCCN(C(=O)Cc2csc(C)n2)CC1`
-5.98

Please give the measured cytotoxicity at 70.5 h for this molecule: `Cc1ccc(CN2CCN(Cc3ccncc3)[C@@H]3CS(=O)(=O)C[C@@H]32)cc1`
-7.92

Please give the measured cytotoxicity at 70.5 h for this molecule: `COC(C)(C)c1noc(C2(C#N)CCCC2)n1`
-1.33

Please give the measured cytotoxicity at 70.5 h for this molecule: `c1ccc(CN2CCc3c(COCc4ccncc4)cncc3C2)nc1`
-4.58

Please give the measured cytotoxicity at 70.5 h for this molecule: CCC(C)(CC(=O)OC)NCc1noc(C)n1 (centres undefined)
26.6

Please give the measured cytotoxicity at 70.5 h for this molecule: CC(NS(=O)(=O)CC1(C#N)CCCC1)c1cccc(-n2cccn2)c1 (centres undefined)
-3.64

Please give the measured cytotoxicity at 70.5 h for this molecule: CC(C)Nc1nc(O)cc(C2CC(=O)N(Cc3ccccn3)C2)n1 (centres undefined)
-5.33

Please give the measured cytotoxicity at 70.5 h for this molecule: Cc1cnn(C2CCCN(C(=O)c3cn4cccnc4n3)C2)c1 (centres undefined)
-3.94

Please give the measured cytotoxicity at 70.5 h for this molecule: Cc1noc(C)c1CN1CCOC2(CCCN(c3nncs3)C2)C1 (centres undefined)
-4.97

Please give the measured cytotoxicity at 70.5 h for this molecule: CC(=O)N1CCCC(Cc2cncc(Br)c2)C1 (centres undefined)
-1.98

Please give the measured cytotoxicity at 70.5 h for this molecule: Cc1nc(Nc2nnc(C)s2)cc(C2CCCN2C(C)C)n1 (centres undefined)
5.99

Please give the measured cytotoxicity at 70.5 h for this molecule: CC1Cc2ccccc2N1C(=O)Cn1nc(-c2cccs2)cc(N)c1=O (centres undefined)
-3.41

Please give the measured cytotoxicity at 70.5 h for this molecule: c1cc2c(cc1CN1CCCC3(CCOC3)C1)OCO2 (centres undefined)
41.1

Please give the measured cytotoxicity at 70.5 h for this molecule: `CC(=O)c1cc(CC(=O)NCc2c(F)cccc2F)cs1`
-7.61

Please give the measured cytotoxicity at 70.5 h for this molecule: CC(C)(C)C(Cn1cccn1)NC(=O)c1ccco1 (centres undefined)
-2.47

Please give the measured cytotoxicity at 70.5 h for this molecule: O=C(C1CCC1)N1CCCC(c2ccnc(Nc3cnccn3)n2)C1 (centres undefined)
-7.38

Please give the measured cytotoxicity at 70.5 h for this molecule: `CCOn1c(SC(C)C)nc2ccccc2c1=O`
-8.12

Please give the measured cytotoxicity at 70.5 h for this molecule: `CCN(Cc1ccc2c(c1)OCCO2)C(=O)NCCc1cnn(C)c1`
0.223

Please give the measured cytotoxicity at 70.5 h for this molecule: CC(O)CN1CCC(CNCc2ccc(S(C)(=O)=O)cc2)CC1 (centres undefined)
-3.17

Please give the measured cytotoxicity at 70.5 h for this molecule: `O=C(NCCc1ccncc1)C1CCN(Cc2ccco2)CC1`
10.1

Please give the measured cytotoxicity at 70.5 h for this molecule: `Cc1ccc(N(C)Cc2nnnn2C2CC2)c(C)c1`
-5.96

Please give the measured cytotoxicity at 70.5 h for this molecule: `COCCC(=O)N1CCN(CC(C)C)c2nc(C)ccc2C1`
-4

Please give the measured cytotoxicity at 70.5 h for this molecule: `NS(=O)(=O)c1ccc(NCc2ccccc2)cc1C(F)(F)F`
4.82

Please give the measured cytotoxicity at 70.5 h for this molecule: `C=C(C)COCCNC(=O)Nc1cccc(Cn2nc(C)nc2C)c1`
19.9

Please give the measured cytotoxicity at 70.5 h for this molecule: FC(F)(F)CCc1ccnc(NC2CCOC2)n1 (centres undefined)
27.9

Please give the measured cytotoxicity at 70.5 h for this molecule: `COc1ccc(F)cc1C(=O)N1CC(c2ccncc2)C1`
-10

Please give the measured cytotoxicity at 70.5 h for this molecule: CC(C)n1[nH]c(=O)c2c1NC(=O)CC2c1cccnc1 (centres undefined)
9.01

Please give the measured cytotoxicity at 70.5 h for this molecule: `CC(C)c1nnc2n1CCN(C(=O)c1cccc(C(F)(F)F)c1)C2`
6.51

Please give the measured cytotoxicity at 70.5 h for this molecule: `Cc1ccc(CNC2(Cc3cc(CO)on3)COC2)o1`
-1.63

Please give the measured cytotoxicity at 70.5 h for this molecule: Cc1cc(C)n(C2CCCN(C(=O)CCOc3ccccc3F)C2)n1 (centres undefined)
-9.17

Please give the measured cytotoxicity at 70.5 h for this molecule: `Cc1[nH]ncc1C(=O)N1CCCN(Cc2nccn2C(C)C)CC1`
-1.07

Please give the measured cytotoxicity at 70.5 h for this molecule: `CC(C)c1cc2c(O)nc(CSCC(=O)NCc3ccccn3)nc2s1`
-5.56

Please give the measured cytotoxicity at 70.5 h for this molecule: `Cc1cccc(CNC[C@H]2COCc3nc4cccnc4n32)n1`
-9.5

Please give the measured cytotoxicity at 70.5 h for this molecule: `O=C(NCCCN1CCOCC1)c1ccc(-n2ccc3ccccc32)s1`
-3.96

Please give the measured cytotoxicity at 70.5 h for this molecule: `CCCc1nnc(NCCc2noc(C3CC3)n2)o1`
-9.24

Please give the measured cytotoxicity at 70.5 h for this molecule: `Cc1ccc(CNC(=O)c2ccc(=O)n(C)n2)c(OCC2CC2)c1`
-4.46

Please give the measured cytotoxicity at 70.5 h for this molecule: `COc1ccc(Oc2ncccc2F)cc1CN1CCCC1`
3.51

Please give the measured cytotoxicity at 70.5 h for this molecule: Cc1nn(C)c(N(C)C)c1CNC1CCOc2c(Cl)cccc21 (centres undefined)
23.4
